Molecular target: hTRPC5 (Homo sapiens)
Construct: expressed in transfected cells; host or cells: HEK293 TREx cells with inducible TRPC5 expression
Sequence (Q9UL62 1-973): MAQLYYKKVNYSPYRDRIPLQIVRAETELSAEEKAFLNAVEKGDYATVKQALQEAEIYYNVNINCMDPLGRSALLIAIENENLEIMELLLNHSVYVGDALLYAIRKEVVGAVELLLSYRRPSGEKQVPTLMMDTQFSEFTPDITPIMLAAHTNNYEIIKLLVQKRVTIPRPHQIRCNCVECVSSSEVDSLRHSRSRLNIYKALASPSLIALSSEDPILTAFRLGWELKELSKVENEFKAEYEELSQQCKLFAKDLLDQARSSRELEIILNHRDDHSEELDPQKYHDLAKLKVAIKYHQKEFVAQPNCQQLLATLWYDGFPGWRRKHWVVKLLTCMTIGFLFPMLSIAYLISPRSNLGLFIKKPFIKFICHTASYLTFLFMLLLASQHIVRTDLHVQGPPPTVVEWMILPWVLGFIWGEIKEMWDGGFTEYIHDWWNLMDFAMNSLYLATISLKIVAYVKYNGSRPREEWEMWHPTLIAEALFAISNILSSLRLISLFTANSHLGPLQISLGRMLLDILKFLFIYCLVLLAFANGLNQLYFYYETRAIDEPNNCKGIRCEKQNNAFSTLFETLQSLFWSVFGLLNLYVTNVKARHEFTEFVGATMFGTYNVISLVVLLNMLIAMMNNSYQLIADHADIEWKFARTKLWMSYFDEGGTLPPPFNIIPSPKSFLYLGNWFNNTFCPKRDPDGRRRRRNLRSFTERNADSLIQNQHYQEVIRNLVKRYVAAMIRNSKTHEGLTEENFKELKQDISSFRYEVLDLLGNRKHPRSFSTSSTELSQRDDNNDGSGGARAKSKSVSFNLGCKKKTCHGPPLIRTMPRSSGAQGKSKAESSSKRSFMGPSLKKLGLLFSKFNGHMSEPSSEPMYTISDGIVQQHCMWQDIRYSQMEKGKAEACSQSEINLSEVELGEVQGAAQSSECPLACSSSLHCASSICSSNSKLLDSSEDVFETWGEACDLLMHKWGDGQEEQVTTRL
Assay: Whole-cell patch clamp, block of LaCl3-activated TRPC5 inward current
Assay type: cell-based
Settings: TRPC5-expressing HEK293 TREx cells, 80 μM LaCl3, inward current, IC50 estimated from 5 μM and 500 nM, read-out: hTRPC5 Patch La3+ Inwd (nM) (All Batches)
Assignment: determine reported IC50 for the given molecules.

Input line: Sample C[C@H]1CCCN1c1ncc(-c2cccc(NC(=O)Cc3nc4c(c(=O)n(C)c(=O)n4C)n3Cc3cccc(Br)c3)n2)cn1 — what was its IC50?
Output line: 2000 to 10000 nM

Input line: Sample CCCOCCc1nc2c(c(=O)n(C)c(=O)n2C)n1Cc1ccc(OC(F)(F)F)cc1 — what was its IC50?
Output line: 1000 to 2000 nM

Input line: Sample Cn1c(=O)c2c(nc(CO)n2Cc2cccc(Br)c2)n(C)c1=O — what was its IC50?
Output line: 2000 to 10000 nM

Input line: Sample CCOC(=O)C(C)(C)Cc1nc2c(c(=O)n(C)c(=O)n2C)n1Cc1cccc(Br)c1 — what was its IC50?
Output line: 100 to 500 nM

====

Assignment: determine reported IC50 for the given compounds.
Target: hTRPC5 (Homo sapiens)
Construct: expressed in transfected cells; host or cells: HEK293 TREx cells with inducible TRPC5 expression
Experiment: Whole-cell patch clamp, block of LaCl3-activated TRPC5 inward current
Assay type: cell-based
Conditions: TRPC5-expressing HEK293 TREx cells, 80 μM LaCl3, inward current, IC50 estimated from 5 μM and 500 nM, read-out: hTRPC5 Patch La3+ Inwd (nM) (All Batches)
Structures can show the parent of a compound that is named as a salt.

Input line: Sample CNCc1cccc(Oc2nc3c(c(=O)n(C)c(=O)n3C)n2Cc2ccc(Cl)cc2)c1 [Compound 163, hydrochloride] — what was its IC50?
Output line: 2000 to 10000 nM

Input line: Sample CN(C)Cc1cccc(Cn2c(Oc3cccc(OC(F)(F)F)c3)nc3c2c(=O)n(C)c(=O)n3C)c1 [Compound 183] — what was its IC50?
Output line: 2000 to 10000 nM

Input line: Sample CCc1coc(CSc2nc3c(c(=O)n(C)c(=O)n3C)n2Cc2cccc(Cl)c2)n1 [Compound 134] — what was its IC50?
Output line: 100 to 500 nM

Input line: Sample CCOC(=O)C(C)(C)Sc1nc2c(c(=O)n(C)c(=O)n2C)n1Cc1cccc(Br)c1 [Compound 9] — what was its IC50?
Output line: < 100 nM
